- test_method_notes: HTB85 osteosarcoma cell growth inhibition, synergistic combos for chromothripsis tumors, BGB or cisplatin IC20 combos (AID 1671453);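 also: cells exposed for 96 hours before readout; 0% = vehicle DMSO and 100% = high DMSO killing control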
- experimental_parameters: HTB85 osteosarcoma cells, drug combinations, single agent, at 5 µM, stronger effect = higher value
measured_property: inhibition

1) Cc1c(-c2cnccn2)ssc1=S    -28%
2) NC(=O)c1ncn(C2OC(CO)C(O)C2O)n1 (stereo unspecified)    2.26%
3) O=c1[nH]c(-c2ccc(C(F)(F)F)cc2)nc2c1CSCC2    3.2%
4) CO[C@H]1/C=C/O[C@@]2(C)Oc3c(C)c(O)c4c(O)c(c(C=NN5CCN(C)CC5)c(O)c4c3C2=O)NC(=O)/C(C)=C\C=C\[C@H](C)[C@H](O)[C@@H](C)[C@@H](O)[C@@H](C)[C@H](OC(C)=O)[C@@H]1C    32.5%
5) O=C(Nc1ccccc1)c1ccccc1O    20.7%
6) CCc1c2c(nc3ccc(O)cc13)-c1cc3c(c(=O)n1C2)COC(=O)[C@]3(O)CC    99.6%
